PROTOCOL_DETAILS: Apparent permeability from basolateral to apical side of human Caco2 cells
Assay type: ADME, cell-based
MEASUREMENT_CONDITIONS: Caco-2
READOUT: Papp B→A (×10⁻⁶ cm/s)
Expressed in ×10⁻⁶ cm/s, but write only the number.

# return recorded Papp B→A for input `CN(CC(N)=O)Cc1nc(-c2cn(CC3CCOCC3)c3c(Cl)cccc23)no1` 12.7

----------
PROTOCOL_DETAILS: Volume of distribution at steady state in rat at 0.4 mg/kg, iv
Format: ADME, organism-based
Set-up: dose 0.4 mg/kg, route intravenous
MEASUREMENT_CONDITIONS: in vivo, read-out: Vdss
READOUT: Vd
A bare number is not enough; add the unit after it.

# return recorded Vd for input `CN(CC(N)=O)Cc1nc(-c2cn(CC3CCOCC3)c3c(Cl)cccc23)no1` 3 L/kg

----------
Quick reference: solubility of the listed items.
PROTOCOL_DETAILS: Aqueous solubility of the compound at pH 7.4
Format: physicochemical
MEASUREMENT_CONDITIONS: aqueous medium

>>> df
                              smiles_record  meas_value
0  Clc1cccc2c(-c3noc(CN4CCCC4)n3)cn(CC3CCOCC3)c12   < 1 µg/mL
1  CN(C)S(=O)(=O)N(C)Cc1nc(-c2cn(CC3CCOCC3)c3c(Cl)cccc23)no1   < 1 µg/mL
2  CC(C)N(CCO)Cc1csc(-c2c(CC3CCOCC3)[nH]c3c(Cl)cccc23)n1  > 10 µg/mL
3  CN(Cc1nc(-c2cn(CC3CCOCC3)c3c(Cl)cccc23)no1)[C@@H](CO)C(N)=O    95 µg/mL

API: the following record is the query input.
# return recorded solubility for input `Clc1cccc2c(-c3nsc(CN4CCCC4)n3)cn(CC3CCOCC3)c12` < 1 µg/mL

----------
TGT: Cannabinoid receptor 2 (Homo sapiens)
Sequence (P34972 whole entry): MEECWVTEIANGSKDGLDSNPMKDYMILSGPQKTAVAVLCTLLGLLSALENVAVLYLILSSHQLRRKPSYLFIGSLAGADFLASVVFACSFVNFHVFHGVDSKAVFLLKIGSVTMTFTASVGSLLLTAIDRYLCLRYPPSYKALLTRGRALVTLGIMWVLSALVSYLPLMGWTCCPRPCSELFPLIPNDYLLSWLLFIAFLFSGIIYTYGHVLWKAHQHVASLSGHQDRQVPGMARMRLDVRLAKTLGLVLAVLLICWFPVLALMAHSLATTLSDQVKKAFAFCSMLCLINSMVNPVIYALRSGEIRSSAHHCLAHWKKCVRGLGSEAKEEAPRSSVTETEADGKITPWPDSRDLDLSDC
READOUT: Ki (nM)
Expressed in nM, but write only the number.

Specify Ki for `CN(CC(N)=O)Cc1nc(-c2cn(CC3CCOCC3)c3c(Cl)cccc23)no1` , system Cannabinoid receptor 2 (Homo sapiens). 6.31

----------
PROTOCOL_DETAILS: AUC in rat plasma at 5 mg/kg, po
Assay type: ADME, organism-based
Set-up: dose 5 mg/kg, route oral
READOUT: AUC (ng·h/mL)
Expressed in ng·h/mL, but write only the number.

# return recorded AUC for input `CN(CC(N)=O)Cc1nc(-c2cn(CC3CCOCC3)c3c(Cl)cccc23)no1` 1570

----------
PROTOCOL_DETAILS: AUC in rat plasma at 0.4 mg/kg, iv
Format: ADME, organism-based
Parameters: dose 0.4 mg/kg, route intravenous
READOUT: AUC
A bare number is not enough; add the unit after it.

# return recorded AUC for input `CN(CC(N)=O)Cc1nc(-c2cn(CC3CCOCC3)c3c(Cl)cccc23)no1` 244 ng·h/mL

----------
PROTOCOL_DETAILS: Aqueous solubility of the compound at pH 7.4
Type: physicochemical
MEASUREMENT_CONDITIONS: aqueous medium
Quick reference: solubility of the listed items.
Expressed in µg/mL, but write only the number.

>>> print(df.to_string())
                                   compound     readout  measurement_units  meas_value
0  COCC(=O)NCc1nc(-c2cn(CC3CCOCC3)c3c(Cl)cccc23)no1  solubility              µg/mL           4

# return recorded solubility for input O=C(O)C1CCCN1Cc1nc(-c2cn(CC3CCOCC3)c3c(Cl)cccc23)ns1 (stereo not given) 108

# return recorded solubility for input `O=C(NCCO)C1CCN(Cc2nc(-c3cn(CC4CCOCC4)c4c(Cl)cccc34)no2)CC1` 115

----------
PROTOCOL_DETAILS: Aqueous solubility of the compound at pH 7.4
Format: physicochemical
MEASUREMENT_CONDITIONS: aqueous medium
READOUT: solubility

>>> print(df.to_string())
                              smiles_record     readout  meas_value
0  OC[C@H]1CCCN1Cc1nc(-c2cn(CC3CCOCC3)c3c(Cl)cccc23)ns1  solubility   < 1 µg/mL
1  CN(CC(N)=O)Cc1nc(-c2cn(CC3CCOCC3)c3c(Cl)cccc23)no1  solubility    21 µg/mL
2  CS(=O)(=O)N(CCO)Cc1nc(-c2cn(CC3CCOCC3)c3c(Cl)cccc23)ns1  solubility   < 1 µg/mL

# return recorded solubility for input `CN(CC(=O)NCCO)Cc1nc(-c2cn(CC3CCOCC3)c3c(Cl)cccc23)no1` 88 µg/mL

# return recorded solubility for input `Clc1cccc2c(-c3nsc(CN4CCCC4)n3)cn(CC3CCCCC3)c12` < 1 µg/mL

----------
PROTOCOL_DETAILS: Tmax in rat at 5 mg/kg, po
Assay type: ADME, organism-based
Parameters: dose 5 mg/kg, route oral
MEASUREMENT_CONDITIONS: in vivo
READOUT: Tmax (h)
Expressed in h, but write only the number.

# return recorded Tmax for input `CN(CC(N)=O)Cc1nc(-c2cn(CC3CCOCC3)c3c(Cl)cccc23)no1` 1

----------
TGT: Cannabinoid receptor 1 (Homo sapiens, UniProt P21554)
Sequence (P21554 whole entry): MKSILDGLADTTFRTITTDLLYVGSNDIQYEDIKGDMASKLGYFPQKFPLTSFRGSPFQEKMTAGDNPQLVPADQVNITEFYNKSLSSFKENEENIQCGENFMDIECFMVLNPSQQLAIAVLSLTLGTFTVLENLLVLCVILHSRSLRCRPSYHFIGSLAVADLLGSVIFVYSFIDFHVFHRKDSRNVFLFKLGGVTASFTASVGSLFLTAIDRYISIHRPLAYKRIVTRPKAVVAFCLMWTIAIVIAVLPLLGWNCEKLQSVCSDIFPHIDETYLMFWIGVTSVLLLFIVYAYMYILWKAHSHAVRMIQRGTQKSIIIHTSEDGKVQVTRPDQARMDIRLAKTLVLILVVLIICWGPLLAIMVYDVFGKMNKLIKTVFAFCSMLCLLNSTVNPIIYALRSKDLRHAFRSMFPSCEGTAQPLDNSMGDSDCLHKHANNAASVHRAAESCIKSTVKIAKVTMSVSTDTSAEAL
PROTOCOL_DETAILS: Agonist activity at human cannabinoid CB1 receptor expressed in CHO cells by luciferase reporter gene assay
pEC50: −log10 of the molar value.
Label met when pEC50 >= 7; otherwise not met.

The examples below pair each entry with its known result.
>>> df
                              smiles_record  class_name
0  OC[C@H]1CCCN1Cc1nc(-c2cn(CC3CCOCC3)c3c(Cl)cccc23)ns1         met
1  CC(=O)N[C@@H]1CCN(Cc2nc(-c3cn(CC4CCOCC4)c4c(Cl)cccc34)ns2)C1     not met
2  CN(C)S(=O)(=O)N(C)Cc1nc(-c2cn(CC3CCOCC3)c3c(Cl)cccc23)no1         met
3  CCNC(=O)NCc1nc(-c2cn(CC3CCOCC3)c3c(Cl)cccc23)no1     not met
4  NC(=O)CNC(=O)[C@@H]1CCCN1Cc1nc(-c2cn(CC3CCOCC3)c3c(Cl)cccc23)ns1     not met

Is reported pEC50 greater than or equal to 7 here: `CC(C)N(CCO)Cc1csc(-c2c(CC3CCOCC3)[nH]c3c(Cl)cccc23)n1` met

Is reported pEC50 greater than or equal to 7 here: `CN(Cc1nc(-c2cn(CC3CCOCC3)c3c(Cl)cccc23)no1)[C@@H](CO)C(N)=O` not met

Is reported pEC50 greater than or equal to 7 here: `COCCN(C)Cc1nc(-c2cn(CC3CCS(=O)(=O)CC3)c3c(Cl)cccc23)ns1` not met

Is reported pEC50 greater than or equal to 7 here: `Clc1cccc2c(-c3nsc(CN4CCCC4)n3)cn(CC3CCCCC3)c12` met

----------
PROTOCOL_DETAILS: Oral bioavailability in rat at 5 mg/kg
Type: ADME, organism-based
MEASUREMENT_CONDITIONS: in vivo
READOUT: bioavailability (%)
Expressed in %, but write only the number.

                              smiles_record  meas_value
0  CC(C)N(CCO)Cc1csc(-c2c(CC3CCOCC3)[nH]c3c(Cl)cccc23)n1           4

# return recorded bioavailability for input `CN(CC(N)=O)Cc1nc(-c2cn(CC3CCOCC3)c3c(Cl)cccc23)no1` 53

----------
PROTOCOL_DETAILS: Half life in rat at 0.4 mg/kg, iv
Assay type: ADME, organism-based
Set-up: dose 0.4 mg/kg, route intravenous
MEASUREMENT_CONDITIONS: in vivo
READOUT: half-life
A bare number is not enough; add the unit after it.

# return recorded half-life for input `CN(CC(N)=O)Cc1nc(-c2cn(CC3CCOCC3)c3c(Cl)cccc23)no1` 1.4 h

----------
PROTOCOL_DETAILS: Aqueous solubility of the compound at pH 7.4
Type: physicochemical
MEASUREMENT_CONDITIONS: aqueous medium
READOUT: solubility (µg/mL)
Expressed in µg/mL, but write only the number.

                              smiles_record  meas_value
0  NC(=O)CNC(=O)[C@@H]1CCCN1Cc1nc(-c2cn(CC3CCOCC3)c3c(Cl)cccc23)ns1          15

API: the following record is the query input.
# return recorded solubility for input `CC(=O)N[C@@H]1CCN(Cc2nc(-c3cn(CC4CCOCC4)c4c(Cl)cccc34)ns2)C1` 16

----------
TGT: UniProt:P21554
READOUT: pKi
pKi is defined as minus the log10 of a concentration measured in mol/L.

Specify pKi for `CN(CC(N)=O)Cc1nc(-c2cn(CC3CCOCC3)c3c(Cl)cccc23)no1` , system UniProt:P21554. 8.40
